B1: Azoarcus group I ribozyme (parent)
chain: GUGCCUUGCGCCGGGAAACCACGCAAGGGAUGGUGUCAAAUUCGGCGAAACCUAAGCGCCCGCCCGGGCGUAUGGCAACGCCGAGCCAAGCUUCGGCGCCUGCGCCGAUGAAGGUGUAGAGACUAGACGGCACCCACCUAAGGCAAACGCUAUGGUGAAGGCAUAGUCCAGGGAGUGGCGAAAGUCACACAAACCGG

- Variants of: B1
- method.notes: reverse-splicing fitness (ratio to wild type); higher = more active; in vitro selection; Mg2+ level not given
Task for the reader: assign each of the following variants its reported reverse-splicing fitness.
Answers are plain numbers.

                     variant_id         measured_quantity  result_value
0  C82G A111C A145C C150A U176G  reverse-splicing fitness       0.00879
1  C82A A111C A120C A145G C169A  reverse-splicing fitness       0.00886
2             A111C C150G C169G  reverse-splicing fitness       0.00897
3  C82A A111C A145U C150U C169G  reverse-splicing fitness       0.00899

Q) Which reverse-splicing fitness value is on record for C82U A120C A145G C150U U176G ?
A) 0.00907
